Reported conditions: in acetonitrile, 313.15 K
Measurement label: solubility (mole fraction)

**Query** Could you please provide reported solubility (mole fraction) for N#CCc1ccccc1[N+](=O)[O-] ? Thanks!
**Result** 0.264

====

Reported conditions: in ethyl acetate, 283.15 K
Measurement label: solubility (mole fraction)
// return a plain number; no unit text

**Query** Could you please provide reported solubility (mole fraction) for N#CCc1ccccc1[N+](=O)[O-] ? Thanks!
**Result** 0.142

====

Reported conditions: in isopropanol, 288.15 K
Measurement label: solubility (mole fraction)
// return a plain number; no unit text

**Query** Could you please provide reported solubility (mole fraction) for N#CCc1ccccc1[N+](=O)[O-] ? Thanks!
**Result** 0.00579

Each recorded value in this set is attributed to BigSolDB 2.1.
